Source: patent US20230290452A1

# System: ARDS patients
# Run description: eICU (v1) dataset, statin intervention by Model C.4 subphenotype
# Format: in vivo, human
# Measurement conditions: no consideration to number doses and minimum dose size; Subphenotype A
Assay endpoint: Mortality (%)
Please reply with the bare figure in % and do not write the unit itself.

Exercise: I'd like to know its Mortality. The compound in question is CC[C@H](C)C(=O)O[C@H]1C[C@H](O)C=C2C=C[C@H](C)[C@H](CC[C@@H](O)C[C@@H](O)CC(=O)O)[C@H]21
Key: 17

* * *

# Tested on: ARDS patients
# Run description: eICU (v1) dataset, statin intervention by Model C.4 subphenotype
# Format: in vivo, human
# Measurement conditions: no consideration to number doses and minimum dose size; Subphenotype B
# Excerpt: The dataset from the eICU (v1) dataset was used for analysis. The intervention of interest was statins. The individual statins were then examined with no consideration to number of doses and minimum dose size. Using this methodology, there were several differential responses identified (bolded and underlined cells as shown below in Table 81).
Assay endpoint: Dead
// no unit string in output, number only

Worked examples follow.
Structure as smiles	Assay endpoint	Measurement
CC(C)c1c(C(=O)Nc2ccccc2)c(-c2ccccc2)c(-c2ccc(F)cc2)n1CC[C@@H](O)C[C@@H](O)CC(=O)O	Dead	28
CCC(C)(C)C(=O)O[C@H]1C[C@@H](C)C=C2C=C[C@H](C)[C@H](CC[C@@H]3C[C@@H](O)CC(=O)O3)[C@H]21	Dead	16
CC[C@H](C)C(=O)O[C@H]1C[C@H](O)C=C2C=C[C@H](C)[C@H](CC[C@@H](O)C[C@@H](O)CC(=O)O)[C@H]21	Dead	2
CC[C@H](C)C(=O)O[C@H]1C[C@@H](C)C=C2C=C[C@H](C)[C@H](CC[C@@H]3C[C@@H](O)CC(=O)O3)[C@H]21	Dead	1

Pending compound:
Exercise: I'd like to know its Dead. The compound in question is CC(C)c1nc(N(C)S(C)(=O)=O)nc(-c2ccc(F)cc2)c1/C=C/[C@@H](O)C[C@@H](O)CC(=O)O
Key: 2
